- STUDY_TARGET: Human immunodeficiency virus type 1 reverse transcriptase (Human immunodeficiency virus 1, UniProt Q72547)
What IC50 was measured for each of the following?

**Q:** Quick check: IC50 of CCN1c2ncc(CCc3ccccc3C)cc2C(=O)N(C)c2ccc(Cl)nc21 ?
**A:** > 1000 nM

**Q:** // repeat for CCN1c2ncc(CO)cc2C(=O)N(C)c2cccnc21 and report
**A:** 50 nM

**Q:** // repeat for CCN1c2ncc(CCc3ccccn3)cc2C(=O)N(C)c2cccnc21 and report
**A:** 190 nM

**Q:** // repeat for CCN1c2ncc(CCc3cccc(NS(C)(=O)=O)c3)cc2C(=O)N(C)c2ccc(Cl)nc21 and report
**A:** 140 nM

**Q:** // repeat for CCN1c2ncc(/C=C/c3ccncc3)cc2C(=O)N(C)c2cccnc21 and report
**A:** 3000 nM

**Q:** // repeat for CCN1c2ncc(CCc3cccc(N=[N+]=[N-])c3)cc2C(=O)N(C)c2ccc(Cl)nc21 and report
**A:** 80 nM

**Q:** // repeat for CCN1c2ncc(Cc3ccccc3)cc2C(=O)N(C)c2cccnc21 and report
**A:** 120 nM

**Q:** // repeat for CCN1c2ncc(CCC(N)=O)cc2C(=O)N(C)c2cccnc21 and report
**A:** 620 nM

**Q:** // repeat for CCN1c2ncc(CCc3ccncc3)cc2C(=O)N(C)c2ccc(F)nc21 and report
**A:** 50 nM

**Q:** // repeat for CCN1c2ncc(CCc3ccnc(C)c3)cc2C(=O)N(C)c2cccnc21 and report
**A:** 30 nM

**Q:** // repeat for CCN1c2ncc(NC(N)=O)cc2C(=O)N(C)c2cccnc21 and report
**A:** 1100 nM
